Item-by-item account of TGI
Tested on: K-562 leukemia
Test: NCI tumour cell line growth inhibition, 48 h

{"Compound": "Oc1cccc2ccc(N/N=C/c3cc(CN4CCOCC4)c(O)c4ncccc34)nc12", "Result value": "6.03 µM"}
{"Compound": "Nc1ncnc2oc(C3OC(COC(=O)c4ccccc4)C(OC(=O)c4ccccc4)C3OC(=O)c3ccccc3)nc12 (stereo unspecified)", "Result value": "> 100 µM"}
{"Compound": "CC1(C)CNCC(C)(OCc2ccccc2)C(=O)NC(C)(C)CNCC(C)(OCc2ccccc2)C(=O)N1 (stereo unspecified)", "Result value": "> 10 µM"}
{"Compound": "COc1ccc(/C=N/n2c(C)n[nH]c2=O)c(OC)c1", "Result value": "> 100 µM"}

I would be grateful if you could share the reported TGI for C/C=C/C#CC#C/C=C/C=C/C(O)CCO (stereo unspecified) .
> 23.1 µM

# lookup: TGI of C=C1CC(c2ccc(OCCCN3C(=O)c4ccccc4C3=O)cc2)OC1=O (stereo unspecified)
3.16 µM

Can you look up the measured TGI of N#CC(C#N)c1ccc(C(=O)N2CCC[C@H]2CO)cc1 for me?
> 100 µM

Query: TGI; subject: CC1=C(CC(=O)c2cccc([N+](=O)[O-])c2)C(=O)c2ccccc2C1=O
38.9 µM

# lookup: TGI of COc1ccc(N(CC(=O)NCCC[Te]c2ccccc2)C(=O)CNC(=O)OC(C)(C)C)cc1
> 100 µM

Would you kindly share the measured TGI for CC1=NC(=Cc2ccccc2O)C(=O)N1n1c(-c2ccccc2)nc2ccccc2c1=O ?
> 100 µM

State the recorded TGI for this entry: CSC(=S)Nc1cccc(C)n1
> 100 µM

====

Test system: M14 melanoma
Assay: NCI tumour cell line growth inhibition, 48 h
Quick list: TGI per entry.

Illustrative cases are given below, each with its answer.
{"Compound": "O=C1c2sccc2-c2cccc3cccc1c23 (tested in a mixture with another compound)", "TGI": "> 100 µM"}
{"Compound": "C/C=C/C#CC#C/C=C/C=C/C(O)CCO (stereo not given)", "TGI": "> 23.1 µM"}
{"Compound": "c1ccc2c(c1)Nc1ccncc1S2", "TGI": "> 100 µM"}
{"Compound": "C[C@]12C[C@@H](OC(=O)[C@]1(C)O)[C@@H]([C@]1(O)CC[C@H]3[C@@H]4C[C@H]5O[C@]56C[C@H]5O[C@H]5C(=O)[C@]6(C)[C@H]4CC[C@@]31C)C2", "TGI": "> 50 µM"}

We next turn to a different compound, shown below.
Quick check: TGI of COc1ccc(OC)c(N(CN2C(=O)CCC2C(=O)O)C(C)=O)c1 (stereo not given) ?
> 100 µM

====

Test system: HS 578T breast
Assay: NCI tumour cell line growth inhibition, 48 h
Item-by-item account of TGI

Study these solved cases before continuing.
{"Molecule": "Nc1ccc2c(c1)nc1n2C(c2c(F)cccc2F)SC1 (stereo not drawn)", "TGI": "> 100 µM"}
{"Molecule": "CC1CN=C(N(Cc2ccccc2)C(=O)Nc2ccc(Cl)c(Cl)c2)S1 (stereo not drawn)", "TGI": "> 100 µM"}

Here's the next entry for you.
# input molecule: O=CNCNCCO ; wanted: its TGI
> 100 µM

====

System: MOLT-4 leukemia
Test: NCI tumour cell line growth inhibition, 48 h; in the data active means GI50 below about 0.43 µM; inactive means the rest
Please reply with one of these outcomes: Yes for active, No for inactive

Record excerpt, results attached:
{"Molecule": "CN(CCNCc1ccccn1)CCNCc1ccccn1", "Label": "No"}
{"Molecule": "Cc1cc(C#Cc2ccc(C(C)(C)C)cc2)ccc1-n1c(/C=C/c2ccc(O)cc2O)nc2ccccc2c1=O", "Label": "No"}
{"Molecule": "COC1C(O)C(CO)OC(OC2C(O)COC(OC3C(C)OC(OC4C(O[C@H]5CC[C@@]6(C)C(CC=C7[C@H]6CCC68C(=O)O[C@@](C)(CCCC(C)C)[C@H]6[C@@H](OC(C)=O)C[C@@]78C)C5(C)C)OCC(OS(=O)(=O)O)C4O)C(OC4OCC(O)C(O)C4O)C3O)C2O)C1O (some centres not stated)", "Label": "Yes"}
{"Molecule": "COc1ncnc(NS(=O)(=O)c2ccc(N=C3C(=O)N(CN4CCN(c5c(F)cc6c(=O)c(C(=O)O)cn(C7CC7)c6c5OC)CC4C)c4ccc(Br)cc43)cc2)c1OC (configuration not stated)", "Label": "No"}
{"Molecule": "Cn1cc(C2=C(c3cccc(OC[C@@H](O)CO)c3)C(=O)NC2=O)c2ccccc21", "Label": "No"}
{"Molecule": "C=CCN1CC(=O)N2[C@@H](Cc3ccc(O)cc3F)C(=O)N(Cc3cccc(N4CC(N5CCN(CC)CC5)C4)n3)C[C@@H]2N1C(=O)NCc1ccccc1", "Label": "Yes"}

// outcome(item) with item = C/C(=C\c1cnc(C)s1)[C@@H]1C[C@@H]2O[C@@H]2CCC[C@H](C)[C@H](O)[C@@H](C)C(=O)C(C)(C)[C@@H](O)CC(=O)O1
Yes

====

Tested on: SK-MEL-28 melanoma
Experiment: NCI tumour cell line growth inhibition, 48 h
Measure name: TGI

// worked examples, TGI included
{"Compound": "[O-]c1c2cc(-[n+]3c(-c4ccccc4)cc(-c4ccccc4)cc3-c3ccccc3)cc1COCCOCCOCCOCCOC2", "Measured target": "SK-MEL-28 melanoma", "Measure name": "TGI", "Result value": "46.7 µM"}
{"Compound": "CCOC(=O)/C(C#N)=C(O)/C(=C\\c1ccc(Br)cc1)NC(=O)c1ccccc1", "Measured target": "SK-MEL-28 melanoma", "Measure name": "TGI", "Result value": "> 100 µM"}
{"Compound": "COC1C(O)C(CO)OC(OC2C(O)COC(OC3C(C)OC(OC4C(O[C@H]5CC[C@@]6(C)C(CC=C7[C@H]6CCC68C(=O)O[C@@](C)(CCCC(C)C)[C@H]6[C@@H](OC(C)=O)C[C@@]78C)C5(C)C)OCC(OS(=O)(=O)O)C4O)C(OC4OCC(O)C(O)C4O)C3O)C2O)C1O (some centres not stated)", "Measured target": "SK-MEL-28 melanoma", "Measure name": "TGI", "Result value": "2.14 µM"}

Look at this compound and give its reported TGI. CC1=NN(c2nc(N)nc(/C(C#N)=C\c3csc([N+](=O)[O-])c3)n2)C(C)(C)C1
> 100 µM

Given the entry CCOP1(=O)CC(C)=C(Cl)C(O)C1 (configuration not stated) , report its measured TGI.
> 100 µM

Param item = Nc1c([N+](=O)[O-])nc(Cl)c2nncn12 ; retrieve measured TGI.
> 100 µM

Quick one: TGI for Cc1nc(C(=O)O)c2ccccc2n1 ?
> 100 µM

Please report the recorded TGI for NC1CC(=O)c2c1sc(Cl)c2Cl (configuration not stated) .
> 100 µM

Reported TGI for O=S(=O)(/C=C/C(=C/c1ccccc1)S(=O)(=O)c1ccccc1)c1ccccc1 : what is it?
2.8 µM

# lookup: TGI of COC(=O)c1c(C)n([O-])c2cc(Cl)c(Cl)cc2[n+]1=O
92.1 µM

Record request: TGI value, item CC1(c2ccccc2Cl)C(C#N)C(=O)NC(=O)C1C#N (configuration not stated)
> 100 µM

====

Listed next: entries and their corresponding TGI.
Test system: HCT-15 colon
Assay: NCI tumour cell line growth inhibition, 48 h
Number only, in µM; omit the unit.

{"Molecule": "COC1C(O)C(CO)OC(OC2C(O)COC(OC3C(C)OC(OC4C(O[C@H]5CC[C@@]6(C)C(CC=C7[C@H]6CCC68C(=O)O[C@@](C)(CCCC(C)C)[C@H]6[C@@H](OC(C)=O)C[C@@]78C)C5(C)C)OCC(OS(=O)(=O)O)C4O)C(OC4OCC(O)C(O)C4O)C3O)C2O)C1O (stereo partly specified)", "Measured target": "HCT-15 colon", "Result value": 0.454}
{"Molecule": "COc1cc(/C=C/C(=O)c2cccc(-n3cc(-c4ccc(Cl)cc4)[nH]c3=O)c2)cc(OC)c1OC", "Measured target": "HCT-15 colon", "Result value": 10.3}
{"Molecule": "COC(=O)CCCCC(=O)c1c(C)[nH]c(/C=C2\\N=C(c3ccc[nH]3)C=C2OC)c1C", "Measured target": "HCT-15 colon", "Result value": 1.4}

Quick one: TGI for O=c1c2cc(S(=O)(=O)O)ccc2nc(COc2ccc(Oc3ccc(Cl)cc3Cl)cc2)n1-c1ccc(Oc2ccc(Cl)cc2)cc1Cl ?
43.8

I would be grateful if you could share the reported TGI for Cc1ccc(-c2nc([P+](c3ccccc3)(c3ccccc3)c3ccccc3)c(S(=O)(=O)c3ccc(C)cc3)o2)cc1 .
3.23

Recorded TGI for CC(C)(O)CNc1nc(Nc2ccnc(C(F)(F)F)c2)nc(-c2cccc(C(F)(F)F)n2)n1 , please?
79.8

What value of TGI has been reported for the following molecule? O=C(c1cccs1)N(C(=S)OCCOc1ccccc1)c1ccccc1
84.7
